Sourced from paper PMC8868508

Tested on: P. aeruginosa ATCC 27853
Format: cell-based, Pseudomonas aeruginosa
Procedure: The inhibition of representative microorganisms by peptides was evaluated by the modified broth dilution technique. […] The diluted bacterial solution was then added to the 96-well plate at 99 µL per well. […] The absorbance of the 96-well plate at 550 nm was measured by Synergy HT Microplate Spectrophotometer (Biotech, Minneapolis, MN, USA), and the obtained values were quantitatively analyzed by Prism 7 software. […]
Where a SMILES comes first, the peptide text is derived from it.
Endpoint: MIC

**Q:** I'd like to know its MIC. The compound in question is CC[C@H](C)[C@H](NC(=O)[C@H](C)NC(=O)[C@H](CCCCN)NC(=O)[C@@H]1CCCN1C(=O)[C@@H](NC(=O)[C@H](CC(C)C)NC(=O)[C@H](C)NC(=O)[C@H](CC(C)C)NC(=O)[C@H](C)NC(=O)[C@H](CC(C)C)NC(=O)[C@@H](N)Cc1ccccc1)[C@@H](C)CC)C(=O)N[C@@H](C)C(=O)N[C@@H](CCCCN)C(=O)N[C@@H](CC(C)C)C(=O)N[C@@H](CCCCN)C(N)=O [QUB-1609] (H-FLALALIPKAIAKLK-NH2)
**A:** > 128 µM

In the following, a different compound is considered.
**Q:** I'd like to know its MIC. The compound in question is CC[C@H](C)[C@H](NC(=O)[C@H](C)NC(=O)[C@H](CCC(=O)O)NC(=O)[C@H](CCCCN)NC(=O)CNC(=O)[C@H](CC(C)C)NC(=O)[C@H](C)NC(=O)[C@H](CC(C)C)NC(=O)[C@H](C)NC(=O)[C@H](CC(C)C)NC(=O)[C@@H](N)Cc1ccccc1)C(=O)N[C@@H](C)C(=O)N[C@@H](CCCCN)C(=O)N[C@@H](CC(C)C)C(=O)N[C@@H](CCCCN)C(N)=O [QUB-1585] (H-FLALALGKEAIAKLK-NH2)
**A:** > 128 µM

---

test system: C. albicans NCTC 10231; type: cell-based, Candida albicans
Where a SMILES comes first, the peptide text is derived from it.
In this section, each of the compounds is paired with its reported MIC.
Note: unit µM is implicit; provide only the numeric part.

Take a look at these entries with their results.
**Q:** I'd like to know its MIC. The compound in question is CC[C@H](C)[C@H](NC(=O)[C@H](C)NC(=O)[C@H](CCCCN)NC(=O)[C@@H]1CCCN1C(=O)[C@@H](NC(=O)[C@H](CC(C)C)NC(=O)[C@H](C)NC(=O)[C@H](CC(C)C)NC(=O)[C@H](C)NC(=O)[C@H](CC(C)C)NC(=O)[C@@H](N)Cc1ccccc1)[C@@H](C)CC)C(=O)N[C@@H](C)C(=O)N[C@@H](CCCCN)C(=O)N[C@@H](CC(C)C)C(=O)N[C@@H](CCCCN)C(N)=O [QUB-1609] (H-FLALALIPKAIAKLK-NH2)
**A:** 16

**Q:** I'd like to know its MIC. The compound in question is CC[C@H](C)[C@H](NC(=O)[C@H](C)NC(=O)[C@H](CCC(=O)O)NC(=O)[C@H](CCCCN)NC(=O)CNC(=O)[C@H](CC(C)C)NC(=O)[C@H](C)NC(=O)[C@H](CC(C)C)NC(=O)[C@H](C)NC(=O)[C@H](CC(C)C)NC(=O)[C@@H](N)Cc1ccccc1)C(=O)N[C@@H](C)C(=O)N[C@@H](CCCCN)C(=O)N[C@@H](CC(C)C)C(=O)N[C@@H](CCCCN)C(N)=O [QUB-1585] (H-FLALALGKEAIAKLK-NH2)
**A:** 64

Next:
**Q:** I'd like to know its MIC. The compound in question is CC[C@H](C)[C@H](NC(=O)[C@H](C)NC(=O)[C@H](CCC(=O)O)NC(=O)[C@H](CCC(N)=O)NC(=O)[C@@H](NC(=O)[C@H](CC(C)C)NC(=O)[C@H](CCCCN)NC(=O)CNC(=O)[C@H](C)NC(=O)[C@H](CC(C)C)NC(=O)[C@@H](N)Cc1ccccc1)[C@@H](C)CC)C(=O)N[C@@H](C)C(=O)N[C@@H](CCCCN)C(=O)N[C@@H](CC(C)C)C(=O)N[C@@H](CCCCN)C(N)=O [QUB-1643] (H-FLAGKLIQEAIAKLK-NH2)
**A:** 64

**Q:** I'd like to know its MIC. The compound in question is CC[C@H](C)[C@H](NC(=O)[C@H](C)NC(=O)CNC(=O)CNC(=O)[C@@H](NC(=O)[C@H](CC(C)C)NC(=O)[C@H](C)NC(=O)[C@H](CC(C)C)NC(=O)[C@H](C)NC(=O)[C@H](CC(C)C)NC(=O)[C@@H](N)Cc1ccccc1)[C@@H](C)CC)C(=O)N[C@@H](C)C(=O)N[C@@H](CCCCN)C(=O)N[C@@H](CC(C)C)C(=O)N[C@@H](CCCCN)C(N)=O [QUB-1498] (H-FLALALIGGAIAKLK-NH2)
**A:** 32
